ASSAY EXPLANATION: qHTS assay to identify small molecule antagonists of the vitamin D receptor (VDR) signaling pathway - cell viability counter screen (AID 743225); also: % is scaled to controls: 0 for no effect and ±100 for the full control effect; nearly all actives have a fitted effect of over 50% in size
MEASUREMENT SETUP: VDR-bla HEK293T viability, CellTiter-Glo luminescence, 16 h; series mostly up to 61 µM
Inconclusive results are not listed. Active and inactive are the calls of the source. Calls follow the shape of the dose curve; as a rule, active = well fitted cell-killing curve with a large enough effect in the repeat runs; inconclusive = weak or mixed curves, or effect the other way; inactive = no such curve, though single readings can be large or run the other way.
QUANTITY: outcome

Would you please look over these solved cases?
{"COMPOUND": "Cc1c(N(C)C)c(=O)n(-c2ccccc2)n1C", "outcome": "inactive"}
{"COMPOUND": "COC1=CC(=O)C[C@@H](C)[C@]12Oc1c(Cl)c(OC)cc(OC)c1C2=O", "outcome": "inactive"}
{"COMPOUND": "Cn1cnc2c1c(=O)[nH]c(=O)n2C", "outcome": "inactive"}
{"COMPOUND": "CCn1cc(C(=O)O)c(=O)c2ccc(C)nc21", "outcome": "inactive"}
{"COMPOUND": "CCCCOCCOCCSC#N", "outcome": "inactive"}
{"COMPOUND": "C=C(C)C(N)=O", "outcome": "inactive"}
{"COMPOUND": "CN(C)C=O", "outcome": "inactive"}

Now examine the next entry.
QUERY: Name the reported outcome value associated with the compound `COc1ccc(O)cc1`
RESULT: inactive

* * *

TARGET UNDER TEST: Estrogen receptor (Homo sapiens) (UniProt P03372)
Sequence (P03372 whole entry, looked up): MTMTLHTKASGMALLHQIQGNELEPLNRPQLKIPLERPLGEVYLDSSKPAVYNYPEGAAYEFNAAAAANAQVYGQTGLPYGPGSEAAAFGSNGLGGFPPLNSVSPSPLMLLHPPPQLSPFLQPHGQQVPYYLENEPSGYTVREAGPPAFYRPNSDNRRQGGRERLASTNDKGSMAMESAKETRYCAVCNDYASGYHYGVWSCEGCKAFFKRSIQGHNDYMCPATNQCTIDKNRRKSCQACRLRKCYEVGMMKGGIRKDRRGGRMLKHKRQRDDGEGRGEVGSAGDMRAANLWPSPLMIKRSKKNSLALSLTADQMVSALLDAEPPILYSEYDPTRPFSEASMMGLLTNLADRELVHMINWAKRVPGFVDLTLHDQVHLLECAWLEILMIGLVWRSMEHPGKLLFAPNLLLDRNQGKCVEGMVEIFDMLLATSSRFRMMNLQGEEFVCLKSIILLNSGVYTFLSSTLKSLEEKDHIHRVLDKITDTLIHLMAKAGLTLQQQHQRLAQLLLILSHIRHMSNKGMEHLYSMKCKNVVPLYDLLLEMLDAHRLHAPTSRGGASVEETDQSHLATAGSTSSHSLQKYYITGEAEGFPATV
ASSAY EXPLANATION: qHTS assay to identify small molecule antagonists of the estrogen receptor alpha (ER-alpha) signaling pathway using the BG1 cell line in the presence of 0.1 nM 17-beta-estradiol (AID 1259244); also: % is scaled to controls: 0 for no effect and ±100 for the full control effect; nearly all actives have a fitted effect of over 50% in size
MEASUREMENT SETUP: VM7Luc4E2 (BG1) ERE-luciferase, antagonist mode, 0.1 nM E2, 22 h; series mostly up to 92.4 µM
Inconclusive results are not listed. The source made the active and inactive calls. The call rests on the fitted dose curve; in most records, active means well fitted inhibition curve with a large enough effect in the repeat runs; inconclusive means weak or mixed curves; inactive means no such curve, though single readings can be large or run the other way.
Write down one outcome, taken from active, inactive

Recorded results for 5 compounds are shown here.
{"COMPOUND": "O=C(O)CCCCC1CCSS1 (stereo not drawn)", "QUALITATIVE LABEL": "inactive"}
{"COMPOUND": "CCCCCCCCCCCCCCCCCC(=O)OCC(O)CO (stereo not drawn)", "QUALITATIVE LABEL": "inactive"}
{"COMPOUND": "COC(=O)c1ccc(C=O)cc1", "QUALITATIVE LABEL": "inactive"}
{"COMPOUND": "CN(C)Cc1cc(CN(C)C)c(O)c(CN(C)C)c1", "QUALITATIVE LABEL": "inactive"}
{"COMPOUND": "COC(=O)c1ccc(O)cc1", "QUALITATIVE LABEL": "inactive"}

QUERY: Per the records of this test, what outcome belongs to `COCCOCCOC` ?
RESULT: inactive

QUERY: Per the records of this test, what outcome belongs to `C#C[C@]1(O)CC[C@H]2[C@@H]3CCC4=CC(=O)CC[C@@H]4[C@H]3CC[C@@]21CC` ?
RESULT: inactive

QUERY: Per the records of this test, what outcome belongs to `COc1ccccc1O` ?
RESULT: inactive

* * *

Listed compounds paired with reported max response
ASSAY EXPLANATION: qHTS RealTime-Glo MT Cell Viability Assay in HEK293 cells - 40 hour (AID 1224874); also: % is scaled to controls: 0 for no effect and ±100 for the full control effect; nearly all actives have a fitted effect of over 50% in size
MEASUREMENT SETUP: RealTime-Glo luminescence; stronger effect = lower value
Records with an inconclusive call do not appear.
Reply numerically in %, unit not repeated.

Would you please look over these solved cases?
{"COMPOUND": "COC1=CC(=O)C[C@@H](C)[C@]12Oc1c(Cl)c(OC)cc(OC)c1C2=O", "max response [%]": -25.7}
{"COMPOUND": "NC(=O)N/N=C/c1ccc([N+](=O)[O-])o1", "max response [%]": -0.165}
{"COMPOUND": "O=C1OC(c2ccc(O)cc2)(c2ccc(O)cc2)c2ccccc21", "max response [%]": -0.757}

Now examine the next entry.
QUERY: Name the reported max response value associated with the compound `c1ccc2[nH]c(-c3cscn3)nc2c1`
RESULT: -21.8
